tgt: full length NS3/4a (Hepatitis C virus genotype 1b (isolate BK) (HCV))
measurementDescription: NS3 Protease Assay (Example A), FRET-based
Type: biochemical
measurementParameters: HCV NS3 protease assay, full length NS3/4a; read-out: Assay A IC50 (μM) average
Description: The HCV NS3 protease functions have been extensively studied and are considered as potential targets for antiviral therapy: see for example the many references listed in the introductory section of this application. Therefore, the activity of the compounds of the invention as anti-HCV agents was assessed using a full length HCV NS3 protease. […]
# IC50 values compiled below
Your answer should be a plain number; it is taken to be in µM.

# return recorded IC50 for entry CC[C@@H](N)c1ccc(Cl)c(C(=O)c2cnc(NC)cn2)c1F [Example 57] 4.6

# return recorded IC50 for entry CC[C@@H](N)c1ccc(Cl)c(C(=O)c2ccnc(N)c2)c1F [Example 52] 0.77

# return recorded IC50 for entry CC[C@@H](N)c1ccc(F)c(C(=O)c2ccccc2)c1F [Example 43] 0.74

# return recorded IC50 for entry C[C@H](CC(N)=O)N[C@@H](c1ccc(Cl)c(C(=O)c2ccncc2)c1F)C1CC1 [Example 130] 1.5

# return recorded IC50 for entry CC[C@@H](N[C@@H](C)CC(N)=O)c1ccc(Cl)c(C(=O)c2ccc(N)c(Cl)c2)c1F [Example 234] 0.14

Next:
# return recorded IC50 for entry CC[C@@H](N[C@@H](C)CC(N)=O)c1ccc(Cl)c(C(=O)c2ccncn2)c1F [Example 99] 0.25

# return recorded IC50 for entry CC[C@H](NC(=O)C1=CCNC1)c1ccc(Cl)c(C(=O)c2cccnc2)c1F [Example 286] 0.13

# return recorded IC50 for entry C=CC[C@@H](N[C@H](C)CC(N)=O)c1ccc(Cl)c(C(=O)c2ccc(N)nc2)c1F [Example 257] 2

# return recorded IC50 for entry CC[C@@H](N)c1ccc(Cl)c(C(=O)c2ccc(C(N)=O)nc2)c1F [Example 22] 1.8

# return recorded IC50 for entry CC[C@@H](N[C@H](C)CC(=O)NCCO)c1ccc(Cl)c(C(=O)c2ccc(N)nc2)c1F [Example 243] 0.43

# return recorded IC50 for entry CC[C@@H](N[C@@H](C)CC(N)=O)c1ccc(Cl)c(C(=O)c2ccc(N)nc2)c1F [Example 81] 0.22

# return recorded IC50 for entry CC[C@@H](N[C@H](C)CC(N)=O)c1ccc(OC)c(C(=O)c2ccc(N)c(C)c2)c1F [Example 274] 0.56

# return recorded IC50 for entry CC[C@@H](N[C@@H](C)CC(N)=O)c1ccc(OC)c(C(=O)c2cccc(F)c2)c1F [Example 212] 0.094

# return recorded IC50 for entry CC[C@@H](NCCF)c1ccc(Cl)c(C(=O)c2cccnc2)c1F [Example 290] 14

# return recorded IC50 for entry [2H]C([2H])([2H])C([2H])([2H])[C@@H](N[C@H](C)CC(N)=O)c1ccc(Cl)c(C(=O)c2ccc(N)c(C)c2)c1F [Example 221] 0.36

# return recorded IC50 for entry C[C@@H](CC(N)=O)N[C@@H](c1ccc(Cl)c(C(=O)c2ccccc2)c1F)C1CC1 [Example 103] 0.077

# return recorded IC50 for entry CC[C@@H](N[C@@H](C)CC(N)=O)c1ccc(Cl)c(C(=O)c2ccc(OC)c(C#N)c2)c1F [Example 215] 1.2

----------
tgt: full length NS3/4a (Hepatitis C virus genotype 1b (isolate BK) (HCV), UniProt P26663)
Sequence (P26663 1027-1657): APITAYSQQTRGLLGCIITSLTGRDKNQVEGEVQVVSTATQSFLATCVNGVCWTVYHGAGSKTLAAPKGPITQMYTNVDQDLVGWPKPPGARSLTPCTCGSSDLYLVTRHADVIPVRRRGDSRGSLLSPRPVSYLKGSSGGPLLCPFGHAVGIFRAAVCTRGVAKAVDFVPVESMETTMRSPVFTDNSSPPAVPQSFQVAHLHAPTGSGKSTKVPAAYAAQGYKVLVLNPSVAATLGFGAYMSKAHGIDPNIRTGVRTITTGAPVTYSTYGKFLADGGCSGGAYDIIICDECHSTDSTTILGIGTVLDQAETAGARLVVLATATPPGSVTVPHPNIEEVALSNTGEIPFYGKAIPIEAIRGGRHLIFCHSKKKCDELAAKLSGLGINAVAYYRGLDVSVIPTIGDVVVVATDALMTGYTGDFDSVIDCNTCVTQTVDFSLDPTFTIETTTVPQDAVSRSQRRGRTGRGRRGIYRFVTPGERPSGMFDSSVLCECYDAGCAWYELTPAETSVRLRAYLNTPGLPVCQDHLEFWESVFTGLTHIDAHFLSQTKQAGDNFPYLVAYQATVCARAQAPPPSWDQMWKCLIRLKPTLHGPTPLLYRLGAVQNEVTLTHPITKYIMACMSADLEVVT
measurementDescription: NS3 Protease Assay (Example A), FRET-based
Assay type: biochemical
measurementParameters: HCV NS3 protease assay, full length NS3/4a; read-out: Assay A IC50 (μM) average
assayReadout: log10 IC50 (log10 of the value in µM)
Annotation: log10 of IC50, µM basis.

Before answering, review these 5 worked examples.
# return recorded log10 IC50 for entry "CC[C@@H](N[C@H](C)CC(N)=O)c1ccc(Cl)c(C(=O)c2ccc3c(c2)OCC(=O)N3)c1F" 0.30

# return recorded log10 IC50 for entry "CC[C@@H](NC(C)C)c1ccc(Cl)c(C(=O)c2cccnc2)c1F" 0.30

# return recorded log10 IC50 for entry "CC[C@H](NC(=O)C1=CCCNC1)c1ccc(Cl)c(C(=O)c2cccnc2)c1F" -0.85

# return recorded log10 IC50 for entry "CC[C@@H](N[C@H](C)CC(N)=O)c1ccc(Cl)c(C(=O)c2ccncn2)c1F" 1.15

# return recorded log10 IC50 for entry "CC[C@@H](N[C@H](C)CC(N)=O)c1ccc(Cl)c(C(=O)c2ccc(CO)cc2)c1F" -0.18

Next:
# return recorded log10 IC50 for entry "COc1ccc([C@H](N[C@H](C)CC(N)=O)C2CC2)c(F)c1C(=O)c1ccc(F)cc1" 0.43

# return recorded log10 IC50 for entry "CC[C@@H](N[C@@H](C)CO)c1ccc(Cl)c(C(=O)c2cccnc2)c1F" 0.15

# return recorded log10 IC50 for entry "CC[C@@H](N)c1ccc(Cl)c(C(=O)c2ccc(NC)nc2)c1F" -0.15

----------
tgt: full length NS3/4a (Hepatitis C virus genotype 1b (isolate BK) (HCV), UniProt P26663)
measurementDescription: NS3 Protease Assay (Example A), FRET-based
Format: biochemical
measurementParameters: HCV NS3 protease assay, full length NS3/4a; read-out: Assay A IC50 (μM) average
# IC50 values compiled below
Your answer should be a plain number; it is taken to be in µM.

Before answering, review these 5 worked examples.
# return recorded IC50 for entry CC[C@H](NCCO)c1ccc(Cl)c(C(=O)c2ccccc2)c1F [Example 171] 0.056

# return recorded IC50 for entry CC[C@@H](N[C@@H](C)CC(N)=O)c1ccc(Cl)c(C(=O)c2ccc3c(n2)NC(=O)CO3)c1F [Example 229] 1.1

# return recorded IC50 for entry CC[C@@H](N[C@H](C)CC(N)=O)c1ccc(Cl)c(C(=O)c2ccncc2)c1F [Example 107] 1.1

# return recorded IC50 for entry C=CC[C@@H](N)c1ccc(Cl)c(C(=O)c2ccc(N)nc2)c1F [Example 67] 0.37

# return recorded IC50 for entry CC[C@@H](N)c1ccc(Cl)c(C(=O)c2cccnc2)c1F [Example 2] 1.4

Next:
# return recorded IC50 for entry CC[C@@H](N)c1ccc(OC)c(C(=O)c2ccc(F)cc2)c1F [Example 191] 1.1

# return recorded IC50 for entry CC[C@@H](N[C@@H](C)CC(N)=O)c1ccc(Cl)c(C(=O)c2cnc(NC)cn2)c1F [Example 192] 0.63

# return recorded IC50 for entry COc1ccc([C@H](N[C@@H](C)CC(N)=O)C2CC2)c(F)c1C(=O)c1cccc(F)c1 [Example 224] 0.081

----------
tgt: full length NS3/4a (Hepatitis C virus genotype 1b (isolate BK) (HCV), UniProt P26663)
measurementDescription: NS3 Protease Assay (Example A), FRET-based
Type: biochemical
measurementParameters: HCV NS3 protease assay, full length NS3/4a; read-out: Assay A IC50 (μM) average
assayReadout: IC50 (µM)
Your answer should be a plain number; it is taken to be in µM.

Before answering, review these 3 worked examples.
Report value: IC50, system: full length NS3/4a (Hepatitis C virus genotype 1b (isolate BK) (HCV), UniProt P26663), compound: "C[C@@H](CC(N)=O)N[C@@H](c1ccc(Cl)c(C(=O)c2cccnc2)c1F)C1CC1" 0.12

Report value: IC50, system: full length NS3/4a (Hepatitis C virus genotype 1b (isolate BK) (HCV), UniProt P26663), compound: CCC(NC[C@H](C)C(N)=O)c1ccc(Cl)c(C(=O)c2cccnc2)c1F (stereo in doubt) 1.1

Report value: IC50, system: full length NS3/4a (Hepatitis C virus genotype 1b (isolate BK) (HCV), UniProt P26663), compound: "CC[C@@H](N[C@@H](C)CC(N)=O)c1ccc(Cl)c(C(=O)c2ccc(O)cc2)c1F" 0.55

Next:
Report value: IC50, system: full length NS3/4a (Hepatitis C virus genotype 1b (isolate BK) (HCV), UniProt P26663), compound: "CC[C@@H](N[C@H](C)CC(N)=O)c1ccc(Cl)c(C(=O)c2ccc(C#N)cc2)c1F" 0.34

Report value: IC50, system: full length NS3/4a (Hepatitis C virus genotype 1b (isolate BK) (HCV), UniProt P26663), compound: "CC[C@@H](N)c1ccc(Cl)c(C(=O)c2ccc(COC(C)=O)cc2)c1F" 0.15

Report value: IC50, system: full length NS3/4a (Hepatitis C virus genotype 1b (isolate BK) (HCV), UniProt P26663), compound: "CC[C@H](N[C@@H](C)CO)c1ccc(Cl)c(C(=O)c2ccc(N)nc2)c1F" 0.18

Report value: IC50, system: full length NS3/4a (Hepatitis C virus genotype 1b (isolate BK) (HCV), UniProt P26663), compound: "CC[C@@H](N)c1ccc(Cl)c(C(=O)c2nccs2)c1F" 0.82

Report value: IC50, system: full length NS3/4a (Hepatitis C virus genotype 1b (isolate BK) (HCV), UniProt P26663), compound: "CC[C@H](CC(N)=O)N[C@H](CC)c1ccc(Cl)c(C(=O)c2ccc(N)nc2)c1F" 1.1

Values from patent US9145354B2
